# Target under test: BRD4 Bromodomain 2 (BRD4 BD2) (Homo sapiens, UniProt O60885)
# Construct: 333-460 were cloned, expressed, and purified to homogeneity
# Experiment description: AlphaScreen binding assay, BRD4 BD2
# Measurement conditions: His-tagged BRD4 BD2 100 nM, biotinylated H4 (1-21) K5/8/12/16 tetra-acetylated peptide 100 nM, compounds listed under IC50 range headings
Property measured: IC50

The examples below pair each entry with its known result.
Compound | Value
CC(=O)N1c2ccc(-c3cnn(C4CC4)c3)c(OCc3cccnc3)c2CC[C@@H]1C | 50 to 500 nM
COC(=O)N1c2ccc(-c3cnn(C4CC4)c3)c(OC3CN(C(C)C)C3)c2CC[C@@H]1C | ≥ 500 nM
CCCOc1c(-c2cnn(C3CC3)c2)ccc2c1CC[C@H](C)N2C(C)=O | < 50 nM
C[C@H]1CCc2c(ccc(-c3cnn(C4CCNCC4)c3)c2Oc2ccc(Cl)cc2)N1C(=O)C1CC1 | < 50 nM
CC(=O)N1c2ccc(-c3cnn(C4CC4)c3)c(Oc3ccc(Cl)cc3)c2CC[C@@H]1C | 50 to 500 nM
C[C@H]1CCc2c(ccc(-c3cnn(C4CNC4)c3)c2Oc2cccc(F)c2F)N1C(=O)C1CC1 | < 50 nM
CC(=O)N1c2ccc(-c3cnn(CCO)c3)c(OCC3CCCC3)c2CC[C@@H]1C | < 50 nM
CC(=O)N1c2ccc(-c3cnn(C4COC4)c3)c(OCc3ccno3)c2CC[C@@H]1C | 50 to 500 nM

### Prompt Give the reported IC50 for `COC(=O)N1c2ccc(-c3cnn(C4CC4)c3)c(Oc3ccc(C(F)(F)F)cn3)c2CC[C@@H]1C` (system: BRD4 Bromodomain 2 (BRD4 BD2) (Homo sapiens, UniProt O60885)).
### Response 50 to 500 nM

### Prompt // lookup IC50 | system=BRD4 Bromodomain 2 (BRD4 BD2) (Homo sapiens, UniProt O60885) | key= CC=Cn1c(Oc2c(-c3cnn(C4CC4)c3)ccc3c2CC[C@H](C)N3C(C)=O)nc2ccccc21 (single isomer, unassigned)
### Response 50 to 500 nM

----------
# key: entry, value: IC50
# Target under test: BRD4 Bromodomain 2 (BRD4 BD2) (Homo sapiens, UniProt O60885)
# Construct: 333-460 were cloned, expressed, and purified to homogeneity
# Experiment description: AlphaScreen binding assay, BRD4 BD2
# Measurement conditions: His-tagged BRD4 BD2 100 nM, biotinylated H4 (1-21) K5/8/12/16 tetra-acetylated peptide 100 nM, compounds listed under IC50 range headings

Sample answers from the record:
Compound | IC50
CC(=O)N1c2ccc(-c3cnn(C4CC4)c3)c(Oc3ccc(Cl)cn3)c2CC[C@@H]1C [I-288] | < 50 nM
CC(=O)N1c2ccc(-c3cnn(C4CC4)c3)c(OCc3ccno3)c2CC[C@@H]1C [I-381] | 50 to 500 nM
CCNC(=O)COc1c(-c2cnn(C3CC3)c2)ccc2c1CC[C@H](C)N2C(C)=O [I-4] | 50 to 500 nM
CC(=O)N1c2ccc(-c3cnn(C4CCNCC4)c3)c(OCC(=O)N3CCCC3)c2CC[C@@H]1C [I-431] | 50 to 500 nM

### Prompt Data request, read-out IC50, for C[C@H]1CCc2c(ccc(-c3cnn(C4CCNCC4)c3)c2Oc2ccccc2)N1C(=O)C1CC1 [I-168]
### Response < 50 nM

Data origin, for the record: patent US10611750B2
